Each record here notes measured Median Survival Time.
Test system: lymphocytic leukemia P388
Assay: Lymphocytic leukemia P388 test (intraperitoneal administration)
Assay type: in vivo, DBA/2 mice
Settings: 12.5 mg./kg. i.p., days 1, 5 and 9
Lab book: enter the figure in days, no units written.

// worked examples, Median Survival Time included
CNCCNC1=C2C(=O)c3c(O)ccc(O)c3C(=O)C2=C(NCCNC)CC1	19.0
O=C1c2c(O)ccc(O)c2C(=O)c2c(NCCNCCN3CCOCC3)ccc(NCCNCCN3CCOCC3)c21	15.0
O=C1C2=C(NCCN(CCO)CCO)CCC(NCCN(CCO)CCO)=C2C(=O)c2c(O)ccc(O)c21	13.5

Fill blank: measured Median Survival Time of the molecule O=C1C2=C(NCCNCCCO)CCC(NCCNCCCO)=C2C(=O)c2c(O)ccc(O)c21 is ____. 19.5

Given O=C1c2c(O)ccc(O)c2C(=O)c2c(NCCN3CC3)ccc(NCCN3CC3)c21 , state its recorded Median Survival Time. 20.5

Given the entry Cl.Cl.O=C1c2c(O)ccc(O)c2C(=O)c2c(NCCCNCCO)ccc(NCCCNCCO)c21 , report its measured Median Survival Time. 22.5

What does the data say about its Median Survival Time? Entry: O=C1C2=C(NCCCNCCO)CCC(NCCCNCCO)=C2C(=O)c2c(O)ccc(O)c21 19.0

Param item = CC(C)NCCNC1=C2C(=O)c3c(O)ccc(O)c3C(=O)C2=C(NCCNC(C)C)CC1 ; retrieve measured Median Survival Time. 15.0

Hey, just so you know, these numbers are from patent US4526989A.
